- Test system: PAK7
- study conditions: concentration: 1 μM, replicates: in singlicate; n = 1
Field: %Inh. Provide a value for each of the molecules that follow.
Numbers only, in %.

O=C(c1ccc(-c2cc(-c3c[nH]nc3-c3ccccn3)ccn2)cc1)N1CCCC1 [GW792479] ... 0
CC(C)(C)OC(=O)NC1CCCN(c2cc(-c3ccc4c(N)n[nH]c4c3)nc(N)n2)C1 (centres unmarked) [GSK2286096] ... 0
Cn1cc(-c2ccc3c(c2)CCN3C(=O)Cc2cccc(C(F)(F)F)c2)c2c(N)ncnc21 [GSK2606414] ... 0
N#Cc1ccc(Oc2ccc(Nc3ncnc4cc[nH]c34)cc2Cl)cc1 ... 15
FC(F)(F)c1ccc(-c2cc(-c3c[nH]nc3-c3ccccn3)ccn2)cc1 [GW599550] ... 0

Please supply %Inh for each of the following items, keeping them in order.
1. CCCc1ccc(S(=O)(=O)NC2CCN(c3ccnc(Nc4ccc(OC)cc4)n3)C2)cc1 (centres unmarked) [GSK1379737]
2. Cc1cc(N2CCC(NS(=O)(=O)c3ccc(F)cc3)CC2)nc(Nc2cccc(C#N)c2)n1.O=C(O)C(F)(F)F [GSK1653537]
3. C[C@@H]1CCN(C(=O)CO)C[C@@H]1N(C)c1ncnc2[nH]ccc12

Result:
0
0
2

====

- Test system: CLK4
- study conditions: concentration: 1 μM, replicates: in singlicate; n = 1
Field: %Inh. Provide a value for each of the compounds that follow.
Your answer should be a number followed by the unit of measure.

Would you please look over these solved cases?
COc1ccc(Nc2nccc(N3CCC(NC(=O)Nc4ccc5c(c4)OCO5)C3)n2)cc1 (stereo not shown) [GSK1379745] ... 19%
OCCOCCn1ccc2ncnc(Nc3ccc(Oc4cccc(Cl)c4)c(Cl)c3)c21 ... 0%
Fc1ccc(Nc2nccc(-c3c(-c4ccc(Cl)cc4)nn4ncccc34)n2)cc1F [GW829058] ... 5%

Reported %Inh of c1ccc(-c2ccc3c(-c4ccnc(Nc5ccc6c(c5)OCCO6)n4)cnn3n2)cc1 [GW818941] : 58%

====

Field: %Inh. Provide a value for each of the compounds that follow.
- Tested on: JAK3(JH1domain-catalytic)
- study conditions: concentration: 1 μM, replicates: in singlicate; n = 1
Numbers only, in %.

Would you please look over these solved cases?
CNc1nccc(-c2c(-c3ccc(F)cc3)ncn2C2CCN(C)CC2)n1 [SB-222903] ... 0
NC(=O)c1sc(-n2cnc3ccccc32)cc1OCc1ccccc1F [GSK1024306] ... 0
Oc1ccc2ncnc(Nc3ccc(OCc4ccccc4)cc3)c2c1 [GI262866] ... 0

Please supply %Inh for each of the following items, keeping them in order.
1. COc1ccc(-c2oc3ncnc(N)c3c2-c2ccc(OC)cc2)cc1 [SB-589132]
2. Cc1ccc(C)c(NC(=O)NCCNc2ccnc(Nc3ccc(F)cc3)n2)c1 [GSK1379878]

Result:
[19, 0]

====

- Test system: FES
- study conditions: concentration: 1 μM, replicates: in singlicate; n = 1
Field: %Inh. Provide a value for each of the compounds that follow.
Give bare numbers, in %.

Would you please look over these solved cases?
COC(=O)c1cccc(NC(=O)NCCNc2ccnc(Nc3ccc(F)cc3)n2)c1 ... 7
Cl.Cl.c1ccc(-c2cc3ccncc3cc2OC2CCNCC2)cc1 ... 0
Cl.c1ccc(Cn2ncc3cc(Nc4ncnc5ccccc45)ccc32)cc1 ... 0

Please supply %Inh for each of the following items, keeping them in order.
1. Cl.Fc1ccccc1COc1ccc(Nc2ncnc3ccc(-c4nnc(C(F)(F)F)o4)cc23)cc1Cl
2. Nc1nc(-c2ccc3c(N)n[nH]c3c2)cc(N2CCC[C@@H](C(=O)Nc3ccccc3)C2)n1.O=C(O)C(F)(F)F.O=C(O)C(F)(F)F
3. COc1ccc(Nc2nccc(N3CCC(NC(=O)c4cccc(NC(C)=O)c4)C3)n2)cc1 (centres unmarked)
4. Nc1n[nH]c2nnc(-c3ccccc3)cc12
5. O=C(c1ccc(-c2cc(-c3c[nH]nc3-c3ccccn3)ccn2)cc1)N1CCCC1

Result:
[0, 0, 0, 0, 5]

====

- Test system: MET;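 note: kd values determined as follow-up on hits from a single-replicate KINOMEscan panel screen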
quantity: Kd

Reported Kd of C[C@H]1CC[C@@H](C(=O)Nc2ccccc2)CN1c1cc(-c2ccc3c(N)n[nH]c3c2)nc(N)n1 [GSK2283293] : > 10 µM

====

- Tested on: CDKL5
- study conditions: concentration: 1 μM, replicates: in singlicate; n = 1
quantity: %Inh (%)
Give bare numbers, in %.

Would you please look over these solved cases?
COc1cc2c(Nc3cccc(NC(=O)c4ccccc4)c3)ncnc2cc1OCCCN1CCOCC1 ... 0
Nc1nccc2scc(-c3ccc4c(c3)CCN4C(=O)Cc3cc(F)ccc3F)c12 ... 0
COc1ccc(NC(=O)Nc2ccc(C)c(-c3ccc(C(=O)Nc4ccncc4)cc3)c2)cc1 ... 0
O=C(NCCCN1CCCC1=O)c1cnc(NCc2cc(Cl)ccc2Cl)nc1NC1CCNCC1 ... 0
COC(=O)c1cccc(NC(=O)NCCNc2ccnc(Nc3ccc(F)cc3)n2)c1 ... 0

Please supply %Inh for each of the following items, keeping them in order.
1. Clc1cc(Nc2ncnc3cc[nH]c23)ccc1OCc1ccccn1
2. CC(C)(C)OC(=O)NC1CCCN(c2cc(-c3ccc4c(N)n[nH]c4c3)nc(N)n2)C1 (centres unmarked)

Result:
[8, 7]

Reported %Inh of O=C(CCO)NCCn1ccc2ncnc(Nc3ccc(Oc4cccc(C(F)(F)F)c4)c(Cl)c3)c21 : 0

====

- System: BRK
- Construct: gene PTK6
- study conditions: concentration: 1 μM, replicates: in singlicate; n = 1
quantity: %Inh

Please supply %Inh for each of the following items, keeping them in order.
1. O=C(NCCCN1CCCC1=O)c1cnc(NCc2cc(Cl)ccc2Cl)nc1NC1CCNCC1
2. Cn1cc(-c2ccc3c(c2)CCN3C(=O)Cc2cccc(C(F)(F)F)c2)c2c(N)ncnc21
3. O=C(Nc1ccccc1)Nc1ccc(Oc2ccc3nccn3n2)cc1

Result:
["0%", "3%", "0%"]

Please supply %Inh for each of the following items, keeping them in order.
1. O=c1cc(N2CCOCC2)nc2n(Cc3cccc(Cl)c3)ccn12
2. N#Cc1ccc(Oc2ccc(Nc3ncnc4cc[nH]c34)cc2Cl)cc1

Result:
7%
11%

====

Field: %Inh. Provide a value for each of the compounds that follow.
- Test system: EPHA2
- study conditions: concentration: 1 μM, replicates: in singlicate; n = 1
Numbers only, in %.

Would you please look over these solved cases?
Cc1cc(N2CCC(NS(=O)(=O)c3ccc(F)cc3)CC2)nc(Nc2cccc(C#N)c2)n1.O=C(O)C(F)(F)F [GSK1653537] ... 0
NC(=O)c1sc(-n2cnc3ccccc32)cc1OCc1ccccc1F [GSK1024306] ... 0
CS(=O)(=O)CCNCc1ccc(-c2ccc3ncnc(Nc4ccc(OCc5ccccc5)c(Cl)c4)c3c2)o1.Cl [GW574783] ... 1

Now let's try a different one.
Reported %Inh of Cc1ccc(O)cc1Nc1cc(C(F)(F)F)nc2ccc(-c3ccncc3)cc12 [GW630823] : 17

====

- System: RIOK3
- study conditions: concentration: 1 μM, replicates: in singlicate; n = 1
Field: %Inh. Provide a value for each of the compounds that follow.
Numbers only, in %.

Would you please look over these solved cases?
O=C(c1ccc(-c2cc(-c3c[nH]nc3-c3ccccn3)ccn2)cc1)N1CCCC1 ... 19
Nc1nccc2scc(-c3ccc4c(c3)CCN4C(=O)Cc3cc(F)ccc3F)c12 ... 0
C[C@H]1CC[C@@H](C(=O)Nc2ccccc2)CN1c1cc(-c2ccc3c(N)n[nH]c3c2)nc(N)n1 ... 31
COc1ccc(Nc2nccc(N3CCC(NC(=O)c4cccc(NC(C)=O)c4)C3)n2)cc1 (centres unmarked) ... 0
CNc1nccc(-c2c(-c3ccc(F)cc3)ncn2CCCN2CCOCC2)n1 ... 24
C[C@@H]1CCN(C(=O)CO)C[C@@H]1N(C)c1ncnc2[nH]ccc12 ... 0

Please supply %Inh for each of the following items, keeping them in order.
1. Cc1ccc(NC(=O)c2cccc(C#N)c2)cc1-c1ccc(C(=O)Nc2ccncc2)cc1
2. COc1cc2ncnc(Nc3ccc(OCc4ccccc4Br)c(Cl)c3)c2cc1OC.Cl

Result:
0
10

====

Field: %Inh. Provide a value for each of the compounds that follow.
- Tested on: PKN1
- study conditions: concentration: 1 μM, replicates: in singlicate; n = 1
Give bare numbers, in %.

Would you please look over these solved cases?
Cc1cc(N2CCC(NS(=O)(=O)c3ccc(F)cc3)CC2)nc(Nc2cccc(C#N)c2)n1.O=C(O)C(F)(F)F ... 23
Cn1ccc2ncnc(Nc3ccc(Oc4cccc(Cl)c4)c(Cl)c3)c21 ... 0
COc1cc2ncnc(Nc3ccc(OCc4ccccc4Br)c(Cl)c3)c2cc1OC.Cl ... 100
CC(C)(C)c1ccc(-n2cnc3c(N)ncnc32)cc1 ... 39
Nc1n[nH]c2nnc(-c3ccccc3)cc12 ... 7
Nc1nccc2scc(-c3ccc4c(c3)CCN4C(=O)Cc3cc(F)ccc3F)c12 ... 0
Cl.c1ccc(Cn2ncc3cc(Nc4ncnc5ccccc45)ccc32)cc1 ... 13
O=C(CCO)NCCn1ccc2ncnc(Nc3ccc(Oc4cccc(C(F)(F)F)c4)c(Cl)c3)c21 ... 0
COc1ccc(Nc2nccc(N3CCC(NC(=O)Nc4ccc5c(c4)OCO5)C3)n2)cc1 (centres unmarked) ... 38
CC(C)N1CCC(n2cnc(-c3ccc(F)cc3)c2-c2ccnc(N)n2)CC1 ... 0

Please supply %Inh for each of the following items, keeping them in order.
1. NC(=O)c1sc(-n2cnc3ccccc32)cc1OCc1ccccc1F
2. O=C(Nc1n[nH]c2nc(-c3ccco3)c(Br)cc12)c1ccc(CN2CCCC2)cc1.O=C(O)[C@H](O)[C@@H](O)C(=O)O

Result:
1. 60
2. 0

Please supply %Inh for each of the following items, keeping them in order.
1. Oc1ccc2ncnc(Nc3ccc(OCc4ccccc4)cc3)c2c1
2. CC(C)(C)OC(=O)NC1CCCN(c2cc(-c3ccc4c(N)n[nH]c4c3)nc(N)n2)C1 (centres unmarked)
3. CNc1nccc(-c2c(-c3ccc(F)cc3)ncn2CCCN2CCOCC2)n1
4. C[C@H]1CC[C@@H](C(=O)Nc2ccccc2)CN1c1cc(-c2ccc3c(N)n[nH]c3c2)nc(N)n1
5. Fc1cccc(COc2ccc(Nc3ncnc4nn5ccccc5c34)cc2Cl)c1
6. CN1c2ccc(-c3ccc(C(=O)NCCO)cc3)cc2-c2[nH]ncc2S1(=O)=O

Result:
[1, 0, 0, 0, 0, 0]

Please supply %Inh for each of the following items, keeping them in order.
1. FC(F)(F)c1ccc(-c2cc(-c3c[nH]nc3-c3ccccn3)ccn2)cc1
2. Nc1nc(-c2ccc3c(N)n[nH]c3c2)cc(N2CCCCC2)n1

Result:
[0, 18]
